ASSAY_METHOD_TEXT: soluble on expression in E. coli; label from the status in PepcDB or PDB records
MEASURED_METRIC: soluble on expression in E. coli

Solved cases (4 shown):
{"columns": ["PRIMARY_SEQUENCE", "soluble on expression in E. coli"],
 "data": [
  ["MGSDKIHHHHHHMQLPSLQSATLIRRYKRFLADVQLPSGDITTLHCANTGAMIGCGSQGDTLWYSTSDSATRKYPSSWELTQLANGHLVCINTHRSNQLTFDALQKKQIIELAMYDKIYPEVKYGEENSRIDFLLKGKDLPDCYVEVKSITYVDNDKKLGMFPDAVTTRGQKHLRELISMKKQGHRAVIFFCGLHDGFDHFQIAKHIDARYDELLHQALKEGVEAYAYAAEFEKTQGIPTALNLTKVAPFKAG", "not soluble"],
  ["MGSDKIHHHHHHMNTQPVIGISGCLTGSAVRFDGGHKRMGFVMDELAQWVAFKPVCPEMAIGLPVPRPALRLVQTPVGEIRMRFSHAPHEDVTEKMADFASAHLATLGGLSGFIVCAKSPSCGMERVRLYDEKGNRGRKEGVGLFTGALMARYPWLPVEEDGRLHDPLLRENFVERVFALHELNALRARGLTRHGLLAFHSRYKLQLLAHHQAGYREIGPFVASLHEWEDLEAFFEVYREKLMAILKQPASRKNHTNVLMHIQGYFRDQLNSRQRGELREVILNYRAGLLPILAPLTLLKHYLAEYPDRYLQAQNYFDPYPQDLALRLTVN", "not soluble"],
  ["MAHHHHHHMKHIATQHHRGVVADPQPIHRNTRRAVKVQTRPRDQPRDREAVPADRDVRVRWKITLRAEQRVTKCVTGDDDVQRPHSGVRIAQQQQHGAVPPRASIERDVRHVARHRTNQHRQAHAAPAERHVAVAQPRQPAAHSLRNLGVHHVADALTNRRWRWCGRRWRWRWRRGQWRRASRHRRRDARIAVPSSSALALAANDRRRQRCKAVALLRALPARSNRRHVGDAVELQLCRRRQQTSRDRQAPSNEPVTGVNPR", "not soluble"],
  ["SWQSYVDDHLMCDVEGNHLTAAAILGQDGSVWAQSAKFPQLKPQEIDGIKKDFEEPGFLAPTGLFLGGEKYMVIQGEQGAVIRGKKGPGGVTIKKTNQALVFGFYDEPMTGGQCNLVVERLGDYLIESEL", "soluble"]
]}

Now for the sequence whose soluble on expression in E. coli we want.
Need soluble on expression in E. coli of MNQVTTYLWETHLPGGSHWSGVVRRGTTLRLTDVSGGANAAVLFYNLEEKLERYNMADTLKTQHTFCLTKGHACHSDMGRIFCCITEDTAGWHDTVCGLSDAELIQQKYGTGRYQELRNDMYRNGLDGMLVELGKWGLGRRDVVSNINFFSKVTANSVGELQFHVSHSKAGDHVDLAFAMDTLVVLSAAPHPLDPAATYRPGAVNLAVFPSTPAVTGACAHIAENARGLENTRRLYAYGGVKLEHHHHHH , thanks. soluble

###

ASSAY_METHOD_TEXT: soluble on expression in E. coli; label from the status in PepcDB or PDB records

{"columns": ["PRIMARY_SEQUENCE", "soluble on expression in E. coli"],
 "data": [
  ["MEVRFTRGKSAILERSLTRPKTEVSVSAFALLFSEMVQYCQSRVYSVSELQARLADMGQGVGASLLDVLVMREKNGKRETKVLNILLFIKVNVWKALFGKEADKLEQANDDDKTYYIIEKEPLINAYISVPKENSTLNCAAFTGGIVEAILTHSGFPAKVTVHWHKGTTLMIKFDESVIARDKALDGR", "soluble"],
  ["MTAAIAAPAYDAIVIGSGIGGLVTATQLAAKGAKVLVLERYLIPGGSAGWFEREGYRFDFGASIIFGFGDPGTTNLLTPPLADVGQALETIPDPVQIHYHLPNQLDLKVHRDYEAFLQELIAQFPQEAEGIRRFYDECWQVFNCLNAMPLLSLEEPKYLFNVFLQHPLACLGLVKYLPQNVGDIARRYIRNPDLLKFIDMECYCWSVVPATMTPMINAGMVFSDRHYGGINYPKGGVGRIAEKLVAGLEAKGSSIRYKARVTRILTEKGRAIGVELADGEKLYAKRIISNATRWNTFG", "soluble"]
]}

###

ASSAY_METHOD_TEXT: soluble on expression in E. coli; label from the status in PepcDB or PDB records

{"columns": ["PRIMARY_SEQUENCE", "soluble on expression in E. coli"],
 "data": [
  ["MEYQHWLREAISQLQASESPRRDAEILLEHVTGRGRTFILAFGETQLTDEQCQQLDALLTRRRDGEPIAHLTGVREFWSLPLFVSPATLIPRPDTECLVEQALARLPEQPCRILDLGTGTGAIALALASERPDCEIIAVDRMPDAVSLAQRNAQHLAIKNIHILQSDWFSALAGQQFAMIVSNPPYIDEQDPHLQQGDVRFEPLTALVAADSGMADIVHIIEQSRNALVSGGFLLLEHGWQQGEAVRQAFILAGYHDVETCRDYGDNERVTLGRYYQ", "soluble"],
  ["SLARSPSVSAGTRPHAGEHTDTSPISSAVSAPSPSSLPLVFSPQPSVSSSSLPLSSSSLARVSSSPQPSASSASLPLSSSRQSGEALGSSGAASSESSRERQGKLRLRHPRQRKPFLLQVLHAEHRCHNPRELARVQRAGGSIFAGRVGGVLEPSRSVGDFDVKDAQPPGVLIATPEVCRVKVRKPTLVLLGTDGVWDMLCSADVLACVKKVTQFWQLLLAAFRERMEELQEEATEKQENEKERGEGDQVRESSGNGKG", "soluble"],
  ["MRWNRMNPFGSYKKVVSARSTLKEVLKKAQDGGIVSTAFIYGLENNLLDGVIVADNAGEFKAVPKVATTPEEVLEAAGTKYTVCPNISVLKSAVREYGCEKIGVVGTPCQVRAVRKLMKYPVGFRHVPDKIALIIGIFCMENFPYYGLKLIVEEHCGVKMEDVVKMDIGKGKFWVYTRWGETKAIKLKETHPYEQIACHVCTDYTAELADISTGSVGSPDGWSTVFIRTAKGEEIFNKMVEDGYLEVKPIEEVKPGLGLVEKLALQKKEKNMKEIEHRKELGLPIPYLEHHHHHH", "soluble"]
]}
